- Test system: γ-GCS
- Assay explanation: Nrf2 target gene induction in MDA-MB-435 cells, qPCR: γ-GCS
- Assay type: cell-based, human
- Condition info: 160 nM, 16 hours
Parameter measured: γ-GCS induction

{"Smiles string": "CC1(C)CC[C@]2(NC(=O)N3CCC(O)CC3)CC[C@]3(C)[C@H](C(=O)C=C4[C@@]5(C)C=C(C#N)C(=O)C(C)(C)[C@@H]5CC[C@]43C)[C@@H]2C1", "γ-GCS induction": "27% of induction observed for RTA 402"}

For each of the items listed, what is its γ-GCS induction?
1. CNC(=O)N[C@]12CCC(C)(C)C[C@H]1[C@H]1C(=O)C=C3[C@@]4(C)C=C(C#N)C(=O)C(C)(C)[C@@H]4CC[C@@]3(C)[C@]1(C)CC2
2. CC1(C)CC[C@]2(NS(=O)(=O)c3ccccc3)CC[C@]3(C)[C@H](C(=O)C=C4[C@@]5(C)C=C(C#N)C(=O)C(C)(C)[C@@H]5CC[C@]43C)[C@@H]2C1

Resp:
1. 27% of induction observed for RTA 402
2. 9% of induction observed for RTA 402

Consider the following items and state reported γ-GCS induction for each.
1. CC1(C)CC[C@]2(N)CC[C@]3(C)[C@H](C(=O)C=C4[C@@]5(C)C=C(C#N)C(=O)C(C)(C)[C@@H]5CC[C@]43C)[C@@H]2C1
2. C=CC(=O)N[C@]12CCC(C)(C)C[C@H]1[C@H]1C(=O)C=C3[C@@]4(C)C=C(C#N)C(=O)C(C)(C)[C@@H]4CC[C@@]3(C)[C@]1(C)CC2

Resp:
73% of induction observed for RTA 402
55% of induction observed for RTA 402

---

- Test system: HO-1
- Assay explanation: Nrf2 target gene induction in MDA-MB-435 cells, qPCR: HO-1
- Assay type: cell-based, human
- Condition info: 160 nM, 16 hours
Field: HO-1 induction. Provide a value for each of the compounds that follow.

Can you give me HO-1 induction for all of these, one by one?
1. CC1(C)CC[C@]2(NS(=O)(=O)c3ccccc3)CC[C@]3(C)[C@H](C(=O)C=C4[C@@]5(C)C=C(C#N)C(=O)C(C)(C)[C@@H]5CC[C@]43C)[C@@H]2C1
2. CC1(C)CC[C@]2(NS(=O)(=O)C3CC3)CC[C@]3(C)[C@H](C(=O)C=C4[C@@]5(C)C=C(C#N)C(=O)C(C)(C)[C@@H]5CC[C@]43C)[C@@H]2C1
3. CCS(=O)(=O)N[C@]12CCC(C)(C)C[C@H]1[C@H]1C(=O)C=C3[C@@]4(C)C=C(C#N)C(=O)C(C)(C)[C@@H]4CC[C@@]3(C)[C@]1(C)CC2
4. CNC(=O)N[C@]12CCC(C)(C)C[C@H]1[C@H]1C(=O)C=C3[C@@]4(C)C=C(C#N)C(=O)C(C)(C)[C@@H]4CC[C@@]3(C)[C@]1(C)CC2

Resp:
1% of induction observed for RTA 402
25% of induction observed for RTA 402
6% of induction observed for RTA 402
4% of induction observed for RTA 402

For each listed entry, give its HO-1 induction.
1. CC1(C)CC[C@]2(N)CC[C@]3(C)[C@H](C(=O)C=C4[C@@]5(C)C=C(C#N)C(=O)C(C)(C)[C@@H]5CC[C@]43C)[C@@H]2C1
2. CC1(C)CC[C@]2(NC(=O)N3CCC(O)CC3)CC[C@]3(C)[C@H](C(=O)C=C4[C@@]5(C)C=C(C#N)C(=O)C(C)(C)[C@@H]5CC[C@]43C)[C@@H]2C1
3. CC1(C)CC[C@]2(NS(C)(=O)=O)CC[C@]3(C)[C@H](C(=O)C=C4[C@@]5(C)C=C(C#N)C(=O)C(C)(C)[C@@H]5CC[C@]43C)[C@@H]2C1

Resp:
1. 2% of induction observed for RTA 402
2. 1% of induction observed for RTA 402
3. 15% of induction observed for RTA 402

Req: Item `C=CC(=O)N[C@]12CCC(C)(C)C[C@H]1[C@H]1C(=O)C=C3[C@@]4(C)C=C(C#N)C(=O)C(C)(C)[C@@H]4CC[C@@]3(C)[C@]1(C)CC2` : provide HO-1 induction
Resp: 28% of induction observed for RTA 402
